- Measured Target: D(2) dopamine receptor (Rattus norvegicus)
- Sequence (P61169 whole entry): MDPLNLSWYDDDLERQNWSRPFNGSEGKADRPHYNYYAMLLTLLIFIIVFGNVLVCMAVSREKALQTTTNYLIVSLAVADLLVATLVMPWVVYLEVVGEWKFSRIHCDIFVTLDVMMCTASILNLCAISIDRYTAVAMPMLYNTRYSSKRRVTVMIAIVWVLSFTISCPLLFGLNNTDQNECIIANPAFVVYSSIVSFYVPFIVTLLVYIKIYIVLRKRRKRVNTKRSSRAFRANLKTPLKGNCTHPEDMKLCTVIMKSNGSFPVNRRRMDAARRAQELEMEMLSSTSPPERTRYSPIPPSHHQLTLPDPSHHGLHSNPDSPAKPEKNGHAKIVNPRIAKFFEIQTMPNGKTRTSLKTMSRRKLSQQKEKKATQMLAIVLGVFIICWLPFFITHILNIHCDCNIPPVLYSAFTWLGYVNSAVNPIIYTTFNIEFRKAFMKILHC
- Measurement Protocol: Binding affinity rat Dopamine receptor D2 expressed in CHO-K1 cells by [3H]U-86170 displacement.
- Format: cell-based
Measured Quantity: log10 of Ki (log10 of the value in nM)
For clarity, the numbers are log10 values of Ki expressed in nM.

Returns the measured log10 of Ki for the input compound. Input: CCCNC1CCc2ccc3[nH]ccc3c2C1 (stereo not given)
1.68

Returns the measured log10 of Ki for the input compound. Input: C=CCN(CCC)C1CCc2ccc3[nH]ccc3c2C1 (stereo not given)
1.62

Returns the measured log10 of Ki for the input compound. Input: CCCN(CC1CC1)C1CCc2ccc3[nH]ccc3c2C1 (stereo not given)
1.52

Returns the measured log10 of Ki for the input compound. Input: c1cc2c3c(ccc2[nH]1)CCC(N1CCCC1)C3 (stereo not given)
1.97

Returns the measured log10 of Ki for the input compound. Input: CCCN(CCCCN1C(=O)CC(C)(C)CC1=O)C1CCc2ccc3[nH]ccc3c2C1 (stereo not given)
1.18

Returns the measured log10 of Ki for the input compound. Input: c1cc2c3c(ccc2[nH]1)CCC(N1CCCCCC1)C3 (stereo not given)
2.00

Returns the measured log10 of Ki for the input compound. Input: `CCCN(CCCCN1C(=O)CC(C)(C)CC1=O)[C@@H]1CCc2ccc3[nH]ccc3c2C1`
0.81

Returns the measured log10 of Ki for the input compound. Input: CCCN(Cc1ccccc1)C1CCc2ccc3[nH]ccc3c2C1 (stereo not given)
1.34

Returns the measured log10 of Ki for the input compound. Input: CCCN(CCc1cccs1)C1CCc2ccc3[nH]ccc3c2C1 (stereo not given)
0.74
